- System: Corynebacterium minutissimum
- test: MIC, C. minutissimum (Table 1)
- Assay type: cell-based
- protocol.conditions: C. minutissimum strain 23348, gram+, read-out: Anti-Microbial Activity MIC, C. m.
Entries and their MIC

smiles.repr	units	lt.gt.eq	MIC
CCCc1cc(C)c(O)cc1C(C)C	µg/mL	≤	15.6
CCCc1c(C(C)C)ccc(C)c1O	µg/mL	=	31.2
C=CCc1cc(C)c(O)cc1C(C)C	µg/mL	=	62.5
C=CCc1c(C(C)C)ccc(C)c1O	µg/mL	=	62.5
C=CCc1c(C)ccc(C(C)C)c1O	µg/mL	=	62.5
CCCc1cc(C(C)C)c(O)cc1C	µg/mL	=	31.2

====

# MIC annotations
- System: Steptococcus mutans
- test: MIC, S. mutans (Table 1)
- Assay type: cell-based
- protocol.conditions: Streptococcus mutans; S. mutans strain 25175, gram+; read-out: Anti-Microbial Activity MIC, S. m.
reported.property: MIC (µg/mL)

compound	reported.property	lt.gt.eq	reported
C=CCc1c(C)ccc(C(C)C)c1O	MIC	=	62.5
C=CCc1cc(C(C)C)c(O)cc1C	MIC	=	31.2
CCCc1cc(C(C)C)c(O)cc1C	MIC	=	31.2
CCCc1cc(C)c(O)cc1C(C)C	MIC	≤	15.6
C=CCc1cc(C)c(O)cc1C(C)C	MIC	=	62.5
C=CCc1c(C(C)C)ccc(C)c1O	MIC	=	62.5
Cc1ccc(C(C)C)c(O)c1 [Thymol, thymol, reference compound]	MIC	=	250
CCCc1c(C(C)C)ccc(C)c1O	MIC	=	31.2
CCCc1c(C)ccc(C(C)C)c1O	MIC	=	31.2

====

- Test system: Corynebacterium xerosis
- test: MIC, C. xerosis (Table 1)
- Type: cell-based
- protocol.conditions: C. xerosis strain 373, gram+, read-out: Anti-Microbial Activity MIC, C. x.

compound	MIC
CCCc1cc(C(C)(C)C)ccc1O [Example 6, Ortho Propyl Para tert-Butyl Phenol]	15.6 µg/mL
CCCc1c(C(C)C)ccc(C)c1O [Example 4a, Ortho Propyl Carvacrol]	31.2 µg/mL
CCCc1cc(C(C)C)c(O)cc1C [Example 3b, Para Propyl Thymol]	31.2 µg/mL
CCCc1c(C)ccc(C(C)C)c1O [Example 3a, Ortho Propyl Thymol]	62.5 µg/mL
C=CCc1cc(C(C)(C)C)ccc1O [Example 5, Ortho Allyl Para tert-Butyl Phenol]	31.2 µg/mL
Cc1ccc(C(C)C)c(O)c1 [Thymol, thymol, reference compound]	250 µg/mL
C=CCc1c(C)ccc(C(C)C)c1O [Example 1a, Ortho Allyl Thymol]	62.5 µg/mL
CCCc1cc(C)c(O)cc1C(C)C [Example 4b, Para Propyl Carvacrol]	≤ 15.6 µg/mL
C=CCc1c(C(C)C)ccc(C)c1O [Example 2a, Ortho Allyl Carvacrol]	62.5 µg/mL
C=CCc1cc(C)c(O)cc1C(C)C [Example 2b, Para Allyl Carvacrol]	62.5 µg/mL
C=CCc1cc(C(C)C)c(O)cc1C [Example 1b, Para Allyl Thymol]	62.5 µg/mL

====

- Tested on: Pseudomonas aeruginosa
- test: MIC, P. aeruginosa (Table 2)
- Type: cell-based
- protocol.conditions: P. aeruginosa strain 15442, gram -, read-out: Anti-Microbial Activity MIC, P. aerug.
Measured MIC of individual entries

compound	MIC
CCCc1cc(C)c(O)cc1C(C)C [Example 4b, Para Propyl Carvacrol]	> 1000 µg/mL
C=CCc1c(C(C)C)ccc(C)c1O [Example 2a, Ortho Allyl Carvacrol]	> 1000 µg/mL
Cc1ccc(C(C)C)c(O)c1 [Thymol, thymol, reference compound]	> 1000 µg/mL
